Target: PDGF-β receptor (Homo sapiens)
Construct: cultures of human foreskin fibroblast cell line AG1518; endogenous in cells; host or cells: AG1518 human foreskin fibroblasts (Human Mutant Cell Repository)
Sequence (P09619 33-1106): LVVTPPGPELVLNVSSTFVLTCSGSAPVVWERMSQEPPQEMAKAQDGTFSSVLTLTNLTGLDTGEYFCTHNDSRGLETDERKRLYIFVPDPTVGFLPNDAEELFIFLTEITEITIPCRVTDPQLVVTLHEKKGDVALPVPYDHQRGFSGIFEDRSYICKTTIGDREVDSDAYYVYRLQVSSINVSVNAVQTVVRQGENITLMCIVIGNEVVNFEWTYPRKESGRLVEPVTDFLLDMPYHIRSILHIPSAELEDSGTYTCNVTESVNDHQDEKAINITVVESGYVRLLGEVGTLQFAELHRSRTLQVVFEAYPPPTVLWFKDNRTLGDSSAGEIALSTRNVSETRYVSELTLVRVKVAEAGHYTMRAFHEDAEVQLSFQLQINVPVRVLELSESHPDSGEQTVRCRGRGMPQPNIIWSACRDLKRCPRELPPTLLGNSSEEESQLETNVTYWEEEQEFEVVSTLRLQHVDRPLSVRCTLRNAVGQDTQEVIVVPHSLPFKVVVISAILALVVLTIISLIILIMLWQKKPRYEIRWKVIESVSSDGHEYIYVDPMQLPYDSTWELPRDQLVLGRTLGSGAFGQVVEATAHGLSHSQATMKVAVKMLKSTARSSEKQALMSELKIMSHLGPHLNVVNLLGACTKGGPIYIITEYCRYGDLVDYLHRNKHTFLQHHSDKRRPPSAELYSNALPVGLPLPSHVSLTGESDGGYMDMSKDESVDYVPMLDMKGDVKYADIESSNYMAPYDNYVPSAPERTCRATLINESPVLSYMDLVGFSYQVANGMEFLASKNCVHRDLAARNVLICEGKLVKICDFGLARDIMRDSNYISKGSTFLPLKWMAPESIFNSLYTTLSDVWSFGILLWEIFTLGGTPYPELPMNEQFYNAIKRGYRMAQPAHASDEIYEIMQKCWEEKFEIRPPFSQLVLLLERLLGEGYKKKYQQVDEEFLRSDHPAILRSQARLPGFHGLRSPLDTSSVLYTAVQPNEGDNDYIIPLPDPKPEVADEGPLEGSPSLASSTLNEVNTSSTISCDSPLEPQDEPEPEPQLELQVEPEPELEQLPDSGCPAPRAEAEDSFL
Test: Competition with 125I-PDGF-BB for binding to AG1518 fibroblasts (α receptor down regulated by PDGF-AA preincubation)
Settings: read-out: Inhibitory Activity: ability to compete with PDGF-BB for binding (peptide needed to decrease binding by 50%), AG1518 cells, 0° C., asterisk = homogeneous peptide, otherwise crude
pIC50: −log10 of the molar value. Ends that are not written are not given here.
Parameter: pIC50

Known pIC50 results, listed for orientation:
1. ANFLVWPPCVEVQLRPVQVRKIEIVRKKP [Peptide 7] = > 4.52
2. KIEIVRKKPIFKKATVTLEDHLASKC [Peptide 1] = < 3.82
3. WPPCVEVQLRPVQVRKIEIVRKKP [Peptide 8] = < 3.82

Now examine the next entry.
Asked: Which measured pIC50 value corresponds to CRPTQVQLRPVQVRKIEIVRKKP [Peptide 2] ?
Given back: < 3.82

* * *

Target: PDGF-β receptor (Homo sapiens)
Construct: cultures of human foreskin fibroblast cell line AG1518; endogenous in cells; host or cells: AG1518 human foreskin fibroblasts (Human Mutant Cell Repository)
Assay: Competition with 125I-PDGF-BB for binding to AG1518 fibroblasts (α receptor down regulated by PDGF-AA preincubation)
Conditions: AG1518 cells, 0° C., asterisk = homogeneous peptide, otherwise crude
Ends that are not written are not given here.
Consider the following sequences and their measured IC50 readings.

1) ANFLVWEIVRKKP [Peptide 16] = < 30 µM

Now examine the next entry.
Asked: Which measured IC50 value corresponds to EAFIKWLVRNKVP [*20, reference compound] ?
Given back: > 150 µM
